Tested on: HIV (H9/HTLV-IIIB) in C8166 cells
Experiment: plaque assay: inhibition of syncytia formation in HIV-infected C8166 cells
Assay type: cell-based
Settings: Human immunodeficiency virus 1, IIIB, Table V, 72 h, 50% inhibition of syncytia formation
value-type: EC50 (nM)

>  <molecule>
CC(C)[C@H](NC(=O)c1ccc2ccccc2n1)C(=O)N[C@@H](Cc1ccccc1)[C@H](O)CN1CC[C@@H](S(=O)(=O)c2ccccn2)C[C@H]1C(=O)NC(C)(C)C

>  <measured-number>
13

$$$$
>  <molecule>
CC(C)[C@H](NC(=O)c1ccc2ccccc2n1)C(=O)N[C@@H](Cc1ccccc1)[C@H](O)CN1CC[C@@H](Sc2ncccn2)C[C@H]1C(=O)NC(C)(C)C

>  <measured-number>
7

$$$$
>  <molecule>
CC(C)[C@H](NC(=O)c1ccc2ccccc2n1)C(=O)N[C@@H](Cc1ccccc1)[C@H](O)CN1CC[C@@H](Sc2ccccn2)C[C@H]1C(=O)NC(C)(C)C

>  <measured-number>
4

$$$$

====

Target: HIV protease (Human immunodeficiency virus type 1 group M subtype B)
Construct: HIV protease was expressed in E. coli; made in house; host or cells: E. coli (plasmid pBRT1 prt+)
Assay: Recombinant HIV Protease HPLC Assay
Format: biochemical
Conditions: Table VII; 37°, 30 min, pH 5.5
pIC50: −log10 of the molar value.
value-type: pIC50

>  <molecule>
CC(C)(C)NC(=O)[C@@H]1C[C@H](Sc2ccncc2)CCN1C[C@@H](O)[C@H](Cc1ccccc1)NC(=O)c1cc(Cl)ccc1Cl

>  <measured-number>
8.01

$$$$
>  <molecule>
CC(C)(C)NC(=O)[C@@H]1C[C@H](Sc2ccncc2)CCN1C[C@@H](O)[C@H](Cc1ccccc1)NC(=O)c1ccc(Cl)cc1Cl

>  <measured-number>
8.27

$$$$
>  <molecule>
CC(C)(C)NC(=O)[C@@H]1C[C@H](Sc2ccncc2)CCN1C[C@@H](O)[C@H](Cc1ccccc1)NC(=O)COc1ccccc1

>  <measured-number>
7.47

$$$$

====

System: HIV (H9/HTLV-IIIB) in C8166 cells
Test: plaque assay: inhibition of syncytia formation in HIV-infected C8166 cells
Assay type: cell-based
Settings: Human immunodeficiency virus 1, IIIB, Table V, 72 h, 50% inhibition of syncytia formation

>  <molecule>
CC(C)[C@H](NC(=O)c1ccc2ccccc2n1)C(=O)N[C@@H](Cc1ccccc1)[C@H](O)CN1CC[C@@H](Oc2ncccn2)C[C@H]1C(=O)NC(C)(C)C

>  <EC50, nM>
25

$$$$
>  <molecule>
CC(C)[C@H](NC(=O)c1ccc2ccccc2n1)C(=O)N[C@@H](Cc1ccccc1)[C@H](O)CN1CC[C@@H](Sc2ccncc2)C[C@H]1C(=O)NC(C)(C)C

>  <EC50, nM>
3

$$$$
>  <molecule>
CC(C)[C@H](NC(=O)c1ccc2ccccc2n1)C(=O)N[C@@H](Cc1ccccc1)[C@H](O)CN1CC[C@@H](OCc2cccnc2)C[C@H]1C(=O)NC(C)(C)C

>  <EC50, nM>
53

$$$$
>  <molecule>
CC(C)[C@H](NC(=O)c1ccc2ccccc2n1)C(=O)N[C@@H](Cc1ccccc1)[C@H](O)CN1CC[C@@H](OCc2ccccn2)C[C@H]1C(=O)NC(C)(C)C

>  <EC50, nM>
24

$$$$
>  <molecule>
Cc1cc(O[C@@H]2CCN(C[C@@H](O)[C@H](Cc3ccccc3)NC(=O)[C@@H](NC(=O)c3ccc4ccccc4n3)C(C)C)[C@H](C(=O)NC(C)(C)C)C2)nc(C)n1

>  <EC50, nM>
17

$$$$
>  <molecule>
Cc1ccnc(O[C@@H]2CCN(C[C@@H](O)[C@H](Cc3ccccc3)NC(=O)[C@@H](NC(=O)c3ccc4ccccc4n3)C(C)C)[C@H](C(=O)NC(C)(C)C)C2)n1

>  <EC50, nM>
44

$$$$
>  <molecule>
CC(C)[C@H](NC(=O)c1ccc2ccccc2n1)C(=O)N[C@@H](Cc1ccccc1)[C@H](O)CN1CC[C@@H](S(=O)(=O)c2ccncc2)C[C@H]1C(=O)NC(C)(C)C

>  <EC50, nM>
25

$$$$
>  <molecule>
CC(C)[C@H](NC(=O)c1ccc2ccccc2n1)C(=O)N[C@@H](Cc1ccccc1)[C@H](O)CN1CC[C@@H](SCc2cccnc2)C[C@H]1C(=O)NC(C)(C)C

>  <EC50, nM>
3

$$$$
>  <molecule>
Cc1cc(C)nc(S[C@@H]2CCN(C[C@@H](O)[C@H](Cc3ccccc3)NC(=O)[C@@H](NC(=O)c3ccc4ccccc4n3)C(C)C)[C@H](C(=O)NC(C)(C)C)C2)n1

>  <EC50, nM>
8

$$$$
>  <molecule>
CC(C)[C@H](NC(=O)c1ccc2ccccc2n1)C(=O)N[C@@H](Cc1ccccc1)[C@H](O)CN1CC[C@@H](S(=O)(=O)Cc2ccncc2)C[C@H]1C(=O)NC(C)(C)C

>  <EC50, nM>
73

$$$$
>  <molecule>
CC(C)[C@H](NC(=O)c1ccc2ccccc2n1)C(=O)N[C@@H](Cc1ccccc1)[C@H](O)CN1CC[C@@H](SCc2ccncc2)C[C@H]1C(=O)NC(C)(C)C [Table V, entry 2(S)]

>  <EC50, nM>
4

$$$$
>  <molecule>
CC(C)[C@H](NC(=O)c1ccc2ccccc2n1)C(=O)N[C@@H](Cc1ccccc1)[C@H](O)CN1CC[C@@H](S(=O)(=O)Cc2ccccn2)C[C@H]1C(=O)NC(C)(C)C

>  <EC50, nM>
33

$$$$
>  <molecule>
CC(C)[C@H](NC(=O)c1ccc2ccccc2n1)C(=O)N[C@@H](Cc1ccccc1)[C@H](O)CN1CC[C@@H](S(=O)(=O)Cc2cccnc2)C[C@H]1C(=O)NC(C)(C)C

>  <EC50, nM>
67

$$$$
>  <molecule>
Cc1cc(C)nc(O[C@@H]2CCN(C[C@@H](O)[C@H](Cc3ccccc3)NC(=O)[C@@H](NC(=O)c3ccc4ccccc4n3)C(C)C)[C@H](C(=O)NC(C)(C)C)C2)n1

>  <EC50, nM>
20

$$$$
>  <molecule>
CC(C)[C@H](NC(=O)c1ccc2ccccc2n1)C(=O)N[C@@H](Cc1ccccc1)[C@H](O)CN1CC[C@@H](SCc2ccccn2)C[C@H]1C(=O)NC(C)(C)C

>  <EC50, nM>
5

$$$$
>  <molecule>
CC(C)[C@H](NC(=O)c1ccc2ccccc2n1)C(=O)N[C@@H](Cc1ccccc1)[C@H](O)CN1CC[C@@H](Oc2ccccc2)C[C@H]1C(=O)NC(C)(C)C

>  <EC50, nM>
14

$$$$
>  <molecule>
CC(C)[C@H](NC(=O)c1ccc2ccccc2n1)C(=O)N[C@@H](Cc1ccccc1)[C@H](O)CN1CC[C@@H](OCc2ccncc2)C[C@H]1C(=O)NC(C)(C)C

>  <EC50, nM>
22

$$$$
>  <molecule>
Cc1cc(S[C@@H]2CCN(C[C@@H](O)[C@H](Cc3ccccc3)NC(=O)[C@@H](NC(=O)c3ccc4ccccc4n3)C(C)C)[C@H](C(=O)NC(C)(C)C)C2)nc(C)n1

>  <EC50, nM>
11

$$$$
>  <molecule>
Cc1ccnc(S[C@@H]2CCN(C[C@@H](O)[C@H](Cc3ccccc3)NC(=O)[C@@H](NC(=O)c3ccc4ccccc4n3)C(C)C)[C@H](C(=O)NC(C)(C)C)C2)n1

>  <EC50, nM>
16

$$$$
>  <molecule>
CC(C)[C@H](NC(=O)c1ccc2ccccc2n1)C(=O)N[C@@H](Cc1ccccc1)[C@H](O)CN1CC[C@@H](Oc2ccc(F)cc2)C[C@H]1C(=O)NC(C)(C)C

>  <EC50, nM>
22

$$$$
